system under test: Tyrosine-protein kinase JAK3 (Homo sapiens, UniProt P52333)
Sequence (P52333 whole entry): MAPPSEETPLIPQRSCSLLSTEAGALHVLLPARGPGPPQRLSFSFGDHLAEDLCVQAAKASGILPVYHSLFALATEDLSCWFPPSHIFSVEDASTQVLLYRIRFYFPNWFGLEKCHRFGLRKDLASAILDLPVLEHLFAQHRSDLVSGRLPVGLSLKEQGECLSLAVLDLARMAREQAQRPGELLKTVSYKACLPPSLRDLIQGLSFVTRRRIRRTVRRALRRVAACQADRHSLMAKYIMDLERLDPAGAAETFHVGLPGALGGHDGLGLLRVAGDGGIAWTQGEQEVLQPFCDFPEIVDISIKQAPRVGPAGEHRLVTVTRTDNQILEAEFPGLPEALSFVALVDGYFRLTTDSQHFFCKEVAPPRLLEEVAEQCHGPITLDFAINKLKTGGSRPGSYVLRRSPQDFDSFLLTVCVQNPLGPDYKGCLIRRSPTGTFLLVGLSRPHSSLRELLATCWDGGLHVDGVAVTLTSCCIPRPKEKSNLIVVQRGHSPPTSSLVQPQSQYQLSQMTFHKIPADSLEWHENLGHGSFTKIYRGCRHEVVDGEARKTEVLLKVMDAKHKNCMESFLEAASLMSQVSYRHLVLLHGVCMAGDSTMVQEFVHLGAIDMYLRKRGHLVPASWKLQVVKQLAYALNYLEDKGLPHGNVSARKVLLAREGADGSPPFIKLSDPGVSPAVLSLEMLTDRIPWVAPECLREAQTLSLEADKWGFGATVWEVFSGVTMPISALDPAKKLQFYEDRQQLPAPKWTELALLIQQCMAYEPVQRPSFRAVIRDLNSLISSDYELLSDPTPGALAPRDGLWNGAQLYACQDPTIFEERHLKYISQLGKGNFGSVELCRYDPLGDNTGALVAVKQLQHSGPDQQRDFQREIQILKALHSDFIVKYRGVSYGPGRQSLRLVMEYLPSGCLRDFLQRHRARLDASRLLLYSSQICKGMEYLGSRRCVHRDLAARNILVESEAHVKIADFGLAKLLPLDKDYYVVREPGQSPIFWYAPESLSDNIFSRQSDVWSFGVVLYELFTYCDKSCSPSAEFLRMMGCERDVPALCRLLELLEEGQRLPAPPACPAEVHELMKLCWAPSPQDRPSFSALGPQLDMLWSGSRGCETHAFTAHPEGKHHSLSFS
test: Inhibition of human recombinant JAK3
pIC50: −log10 of the molar value.
reported endpoint: pIC50

# smi, reported endpoint, endpoint value
records = [
    ("CN(C)CCCNC(=O)c1csc2nc(-c3ccc(NC(=O)Nc4cc(C(C)(C)C)on4)cc3)cn12", "pIC50", "< 5.00"),
]

* * *

System: HeLa
test: Cytotoxicity against human HeLa cells assessed as cell viability after 72 hrs by MTT assay
Assay type: functional, cell-based
pIC50: −log10 of the molar value.

# smi, pIC50
measured = [
    ("CCOC(=O)c1csc2nc(-c3ccc(NC(=O)Nc4ccccc4)cc3)cn12", "< 4.70"),
    ("CC(C)(C)c1cc(NC(=O)Nc2ccc(-c3cn4c(C(=O)OCCN5CCOCC5)csc4n3)cc2)no1", "< 4.70"),
    ("CCOC(=O)c1csc2nc(-c3ccc(NS(=O)(=O)c4ccc(C)cc4)cc3)cn12", "< 4.70"),
    ("CCOC(=O)c1csc2nc(-c3cccc(NC(=O)c4ccco4)c3)cn12", "< 4.70"),
    ("CCOC(=O)c1csc2nc(-c3ccc(NC(=O)Nc4cc(C(C)(C)C)on4)cc3)cn12", "< 4.70"),
    ("CCOC(=O)c1csc2nc(-c3ccc(NC(=O)CC)cc3)cn12", "< 4.70"),
    ("CCOC(=O)c1csc2nc(-c3ccc(NC(=O)Nc4ccc(Br)cn4)cc3)cn12", "< 4.70"),
    ("CCCS(=O)(=O)Nc1ccc(-c2cn3c(C(=O)OCC)csc3n2)cc1", "< 4.70"),
    ("C=CC(=O)Nc1ccc(-c2cn3c(C(=O)OCC)csc3n2)cc1", "< 4.70"),
    ("CCOC(=O)c1csc2nc(-c3cccc(NC(=O)CCl)c3)cn12", 4.70),
    ("CN(C)CCCNC(=O)c1csc2nc(-c3ccc(NC(=O)Nc4cc(C(C)(C)C)on4)cc3)cn12", 4.70),
    ("C=CC(=O)Nc1cccc(-c2cn3c(C(=O)OCC)csc3n2)c1", "< 4.70"),
    ("CNC(=O)c1cc(Oc2ccc(NC(=O)Nc3ccc(Cl)c(C(F)(F)F)c3)cc2)ccn1", 5.28),
    ("CCOC(=O)c1csc2nc(-c3cccc(NC(=O)CC)c3)cn12", "< 4.70"),
    ("CCOC(=O)c1csc2nc(-c3ccc(NC(=O)CCl)cc3)cn12", "< 4.70"),
    ("CC(C)(C)c1cc(NC(=O)Nc2ccc(-c3cn4c(C(=O)NCCN5CCOCC5)csc4n3)cc2)no1", "< 4.70"),
    ("CN(C)CCNC(=O)c1csc2nc(-c3ccc(NC(=O)Nc4cc(C(C)(C)C)on4)cc3)cn12", 4.70),
    ("CCOC(=O)c1csc2nc(-c3ccc(NC(=O)c4ccco4)cc3)cn12", "< 4.70"),
    ("CC(C)(C)c1cc(NC(=O)Nc2ccc(-c3cn4c(C(=O)NCCO)csc4n3)cc2)no1", "< 4.70"),
    ("CC(C)(C)c1cc(NC(=O)Nc2ccc(-c3cn4c(C(=O)NCCS(C)(=O)=O)csc4n3)cc2)no1", "< 4.70"),
]
